# Measurement Target: 5-LOX (Homo sapiens)
# Assay Name: LOX inhibitory assay
# Format: biochemical
# Protocol Conditions: Table 2; read-out: LOX (IC50 μM)
For each record, check the reported IC50: if it is below 0.9 µM write condition met, else write condition not met.

O=C1C(=Cc2ccccc2)Oc2ccccc21 [WE-1]	condition not met
O=Cc1ccc(C=C2Oc3ccccc3C2=O)cc1 [WE-6]	condition not met
O=C(O)c1ccc(C=C2Oc3ccccc3C2=O)cc1 [WE-5]	condition not met
O=C1C(=Cc2ccc(Cl)cc2)Oc2ccccc21 [WE-2]	condition met
O=C1C(=Cc2ccc(F)cc2)Oc2ccccc21 [WE-7]	condition met
COc1ccc(C=C2Oc3ccccc3C2=O)cc1 [WE-3]	condition met

###

# Measurement Target: COX-2 enzyme (Homo sapiens, UniProt P35354)
# Construct: purchased Sigma Aldrich
# Sequence (P35354 18-604): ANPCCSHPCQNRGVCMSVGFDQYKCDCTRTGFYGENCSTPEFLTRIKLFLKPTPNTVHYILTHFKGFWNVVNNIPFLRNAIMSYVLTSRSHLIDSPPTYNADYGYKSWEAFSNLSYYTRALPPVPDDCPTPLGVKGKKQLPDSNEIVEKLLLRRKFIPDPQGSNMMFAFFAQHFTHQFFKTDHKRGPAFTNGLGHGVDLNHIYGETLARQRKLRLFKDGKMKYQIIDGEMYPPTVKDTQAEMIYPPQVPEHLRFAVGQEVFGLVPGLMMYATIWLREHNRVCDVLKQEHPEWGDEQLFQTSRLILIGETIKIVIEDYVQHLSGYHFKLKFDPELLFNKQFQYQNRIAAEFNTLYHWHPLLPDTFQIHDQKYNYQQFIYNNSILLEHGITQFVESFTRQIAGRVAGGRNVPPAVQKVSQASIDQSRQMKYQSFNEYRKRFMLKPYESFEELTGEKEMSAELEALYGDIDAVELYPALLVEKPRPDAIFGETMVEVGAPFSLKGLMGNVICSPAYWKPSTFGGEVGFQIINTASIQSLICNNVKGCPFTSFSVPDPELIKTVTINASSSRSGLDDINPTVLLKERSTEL
# Assay Name: COX-2 inhibitory assay
# Format: biochemical
# Protocol Conditions: as repeated in Table 4
Lab note: cut-off is 0.8 µM. Strictly less in IC50 is Criterion met. Exactly 0.8 µM or more is Criterion not met.

O=C(O)c1ccc(C=C2Oc3ccccc3C2=O)cc1	Criterion not met
O=Cc1ccc(C=C2Oc3ccccc3C2=O)cc1	Criterion not met
O=C1C(=Cc2ccccc2)Oc2ccccc21	Criterion not met
O=C1C(=Cc2ccc(F)cc2)Oc2ccccc21	Criterion met
COc1ccc(C=C2Oc3ccccc3C2=O)cc1	Criterion met

###

# Tested on: opioid receptors (tail flicking latency)
# Assay Name: Assessment of opioid mechanism via tail immersion test with Naloxone
# Assay type: in vivo
# Protocol Conditions: 10 mg/kg + Naloxone 2 mg/kg, mice, control 3.31 ± 0.44
Experimental Endpoint: Latency response 90 min

COc1cccc(C2(O)CCCCC2CN(C)C)c1 (centres unmarked) [Tramadol, reference compound]	3.70
COc1ccc(C=C2Oc3ccccc3C2=O)cc1OC	5.30
O=C1C(=Cc2ccc(F)cc2)Oc2ccccc21	4.11
COc1ccc(C=C2Oc3ccccc3C2=O)cc1	4.71
O=C1C(=Cc2ccc(Cl)cc2)Oc2ccccc21	4.03

###

# Measurement Target: UniProt:P09917
# Sequence (P09917 1-674): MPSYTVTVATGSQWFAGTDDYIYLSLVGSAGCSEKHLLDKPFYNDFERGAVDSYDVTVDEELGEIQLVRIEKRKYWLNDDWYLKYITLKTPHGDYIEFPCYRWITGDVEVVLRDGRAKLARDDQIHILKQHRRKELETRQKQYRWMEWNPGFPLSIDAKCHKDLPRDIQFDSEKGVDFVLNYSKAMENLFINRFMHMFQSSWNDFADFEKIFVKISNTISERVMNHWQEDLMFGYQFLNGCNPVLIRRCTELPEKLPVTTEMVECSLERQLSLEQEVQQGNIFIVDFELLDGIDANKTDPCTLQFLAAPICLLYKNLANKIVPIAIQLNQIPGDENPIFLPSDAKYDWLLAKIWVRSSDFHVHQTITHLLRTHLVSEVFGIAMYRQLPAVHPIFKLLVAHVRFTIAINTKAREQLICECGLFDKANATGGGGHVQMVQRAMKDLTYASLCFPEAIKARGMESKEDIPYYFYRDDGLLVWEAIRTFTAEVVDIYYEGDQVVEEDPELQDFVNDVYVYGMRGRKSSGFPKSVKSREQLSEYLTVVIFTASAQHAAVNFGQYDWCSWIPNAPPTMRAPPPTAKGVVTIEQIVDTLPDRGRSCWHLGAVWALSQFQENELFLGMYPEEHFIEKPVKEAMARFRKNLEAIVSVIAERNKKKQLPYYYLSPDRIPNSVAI
# Assay Name: LOX inhibitory assay
# Format: biochemical
# Protocol Conditions: as repeated in Table 4; read-out: Human LOX (IC50 μM)
Hi! Could you tag entries with IC50 below 0.9 µM as Satisfied, and those at or above as Not satisfied? Much appreciated.

O=C1C(=Cc2ccc(Cl)cc2)Oc2ccccc21	Satisfied
O=C(O)c1ccc(C=C2Oc3ccccc3C2=O)cc1	Not satisfied
O=C1C(=Cc2ccc(F)cc2)Oc2ccccc21	Satisfied
O=C1C(=Cc2ccccc2)Oc2ccccc21	Not satisfied
O=Cc1ccc(C=C2Oc3ccccc3C2=O)cc1	Not satisfied
COc1ccc(C=C2Oc3ccccc3C2=O)cc1	Satisfied
